testedOn: Bifunctional purine biosynthesis protein ATIC (Homo sapiens, UniProt P31939)
Sequence (P31939 whole entry): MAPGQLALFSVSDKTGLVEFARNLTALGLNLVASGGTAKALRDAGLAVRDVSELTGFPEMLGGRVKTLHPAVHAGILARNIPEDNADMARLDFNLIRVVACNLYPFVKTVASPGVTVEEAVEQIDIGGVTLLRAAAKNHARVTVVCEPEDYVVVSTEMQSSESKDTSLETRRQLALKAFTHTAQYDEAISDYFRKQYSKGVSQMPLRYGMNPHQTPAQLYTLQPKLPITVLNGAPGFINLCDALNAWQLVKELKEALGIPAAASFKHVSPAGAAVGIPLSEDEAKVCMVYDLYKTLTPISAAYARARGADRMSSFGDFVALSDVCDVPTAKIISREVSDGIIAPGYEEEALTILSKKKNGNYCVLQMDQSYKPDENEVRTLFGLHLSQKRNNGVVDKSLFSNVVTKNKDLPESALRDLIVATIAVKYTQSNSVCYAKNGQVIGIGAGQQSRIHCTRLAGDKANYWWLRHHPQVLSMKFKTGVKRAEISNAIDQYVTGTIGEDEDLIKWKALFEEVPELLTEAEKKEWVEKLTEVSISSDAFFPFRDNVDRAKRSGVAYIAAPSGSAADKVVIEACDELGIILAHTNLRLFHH
testMethodNotes: In vitro inhibitory activity against Aminoimidazole carboxamide ribonucleotide transformylase
pKi: −log10 of the molar value.

[
  {
    "compound": "Nc1nc(O)c2cc(CN(Cc3ccc(F)c([N+](=O)[O-])c3)c3ccc(C(=O)NC(CCC(=O)O)C(=O)O)cc3)ccc2n1 (configuration not stated)",
    "pKi": 4.77
  },
  {
    "compound": "Nc1nc2ccc(CN(Cc3ccc([N+](=O)[O-])c(F)c3)c3ccc(C(=O)NC(CCC(=O)O)C(=O)O)cc3)cc2c(=O)[nH]1 (configuration not stated)",
    "pKi": 4.28
  }
]

// data source = ChEMBL document CHEMBL1133492
